These measurements were taken from ChEMBL document CHEMBL1142726.

# MEASUREMENT DESCRIPTION: Area under the concentration time curve in dog (intravenous dosage of 1.25 mg/kg) was determined
# Type: ADME, organism-based, Canis lupus familiaris
# Set-up: dose 1.25 mg/kg, route intravenous
# TEST CONDITIONS: in vivo
READOUT NAME: AUC (ng·h/mL)

[
  {
    "COMPOUND": "Cc1cc(/C=C/C#N)cc(C)c1Nc1ccnc(Nc2ccc(C#N)cc2)n1 [RILPIVIRINE]",
    "READOUT NAME": "AUC",
    "MEASURED VALUE": 8700
  }
]

###

# Tested on: Human immunodeficiency virus 1
# MEASUREMENT DESCRIPTION: Effective concentration against human immunodeficiency virus type 1 wild type srtain
# Type: functional, organism-based

[
  {
    "STRUCTURE SMILES STRING": "O=C1Nc2ccc(Cl)cc2[C@@](C#CC2CC2)(C(F)(F)F)O1",
    "EC50 (nM)": 1.4
  }
]

###

# MEASUREMENT DESCRIPTION: Area under the concentration time curve in rabbit (intravenous dosage of 1.25 mg/kg) was determined
# Assay type: ADME, organism-based, Oryctolagus cuniculus
# Parameters: dose 1.25 mg/kg, route intravenous
# TEST CONDITIONS: in vivo

[
  {
    "STRUCTURE SMILES STRING": "Cc1cc(/C=C/C#N)cc(C)c1Nc1ccnc(Nc2ccc(C#N)cc2)n1",
    "AUC": "44 µg·h/mL"
  }
]

###

# Test system: Human immunodeficiency virus 1
# MEASUREMENT DESCRIPTION: Effective concentration against human immunodeficiency virus type 1 G190S mutant strain
# Format: functional, organism-based

[
  {
    "STRUCTURE SMILES STRING": "Cc1cc(C)c(Nc2ccnc(Nc3ccc(C#N)cc3)n2)c(C)c1",
    "EC50, nM": 2
  },
  {
    "STRUCTURE SMILES STRING": "O=C1Nc2ccc(Cl)cc2[C@@](C#CC2CC2)(C(F)(F)F)O1",
    "EC50, nM": 275
  },
  {
    "STRUCTURE SMILES STRING": "Cc1ccnc2c1NC(=O)c1cccnc1N2C1CC1",
    "EC50, nM": 1000
  },
  {
    "STRUCTURE SMILES STRING": "Cc1cc(/C=C/C#N)cc(C)c1Nc1ccnc(Nc2ccc(C#N)cc2)n1",
    "EC50, nM": 0.1
  }
]

###

# MEASUREMENT DESCRIPTION: Half life in rat was determined after intravenous administration
# Format: ADME, organism-based
# TEST CONDITIONS: in vivo
READOUT NAME: half-life

[
  {
    "STRUCTURE SMILES STRING": "Cc1cc(/C=C/C#N)cc(C)c1Nc1ccnc(Nc2ccc(C#N)cc2)n1",
    "MEASURED VALUE": "4.4 h"
  }
]

###

# Test system: Human immunodeficiency virus 1
# MEASUREMENT DESCRIPTION: Effective concentration against human immunodeficiency virus type 1 Y181C mutant was determined
# Format: functional, organism-based
pEC50: −log10 of the molar value.

[
  {
    "COMPOUND": "O=C1Nc2ccc(Cl)cc2[C@@](C#CC2CC2)(C(F)(F)F)O1 [EFAVIRENZ]",
    "pEC50": 8.70
  }
]
